Every entry's value here was drawn from patent US4245050A.

- Tested on: choline oxidase derived from C. murisepticum KY 3505
- PROTOCOL TEXT: Substrate specificity of choline oxidase
- Format: biochemical, Corynebacterium murisepticum
- STUDY CONDITIONS: enzyme 0.4 U/ml; activity on choline chloride defined as 100
Counter-ions that a name gives are not always drawn.
Consider the following compounds; for each one, report its Substrate specificity (relative activity %).
Numbers only, in %.

COMPOUND | STUDY TARGET | DATA VALUE
CN(C)CCO | choline oxidase derived from C. murisepticum KY 3505 | 8.5
NCC(=O)O | choline oxidase derived from C. murisepticum KY 3505 | 0
C[N+](C)(C)CCO.[Cl-] [choline chloride] | choline oxidase derived from C. murisepticum KY 3505 | 100
CNCC(=O)O | choline oxidase derived from C. murisepticum KY 3505 | 0
CC(=O)OCC[N+](C)(C)C.[Cl-] [acetylcholine chloride] | choline oxidase derived from C. murisepticum KY 3505 | 0
NCCO [ethanolamine hydrochloride] | choline oxidase derived from C. murisepticum KY 3505 | 0
CNCCO | choline oxidase derived from C. murisepticum KY 3505 | 0

Let us move to another entry and its Substrate specificity (relative activity %).
Qu. Determine from records and report Substrate specificity (relative activity %) for `C[N+](C)(C)CC(=O)O`
Ans. 0
